# Tested on: SNB-19 CNS
# measurement notes: NCI tumour cell line growth inhibition, 48 h
Below is a list of entries, each paired with its recorded TGI value.
readout name: TGI

compound | readout name | recorded value
Cc1nn(C(=O)Cc2ccccc2)c2c1C(c1ccccc1O)SC(N)=N2 (stereo not drawn) | TGI | > 100 µM
N#Cc1nc(-c2cc([N+](=O)[O-])cc([N+](=O)[O-])c2)oc1N | TGI | > 10 µM
CCN1C(=O)N(CC)C2C1NN=c1s/c(=C\c3cccnc3)c(=O)n12 (stereo not drawn) | TGI | > 100 µM

----------
Entries and their TGI values follow.
# System: HCT-15 colon
# measurement notes: NCI tumour cell line growth inhibition, 48 h

compound | assay target | TGI
CCN(CC)CCNc1ccc2nnn3c4ccc(OC)cc4c(=O)c1c23 | HCT-15 colon | 18.7 µM
COC(=O)CCC1CCc2c(OC)ccc(O)c2C1=O (centres undefined) | HCT-15 colon | > 100 µM
CCN(Cc1ccc(F)c(F)c1)c1ccc(CO)c(Cl)c1 | HCT-15 colon | 25 µM
Cc1ccc(C(=O)O/N=C2/CCC/C2=C\c2ccccc2)cc1 | HCT-15 colon | > 100 µM
C=C1[C@@H](O)C[C@@]23CC[C@@H]4[C@@]5(C)CC[C@@H](OC(C)=O)C(C)(C)[C@@H]5C[C@@H](OC5OC(COC(C)=O)C(O)C(O)C5O)[C@@]4(C)C2=CC[C@H]3[C@H]1C (some centres undefined) | HCT-15 colon | 27.8 µM
COc1ccccc1NC(=O)CC(=O)N1N=C(C)C(N=Nc2ccc(S(N)(=O)=O)cc2)C1=O (centres undefined) | HCT-15 colon | > 100 µM
CSCCC(NCc1c(O)ccc2c(-c3ccccc3)cc(=O)oc12)C(=O)O (centres undefined) | HCT-15 colon | > 100 µM
Cc1cc2c(C)cc(=O)[nH]c2cc1N | HCT-15 colon | > 100 µM
CN(C)S(=O)(=O)c1ccc(NC(=O)COC(=O)c2ccc(S(=O)(=O)N3CCCCC3)cc2)cc1 | HCT-15 colon | > 100 µM

----------
# Tested on: SF-295 CNS
# measurement notes: NCI tumour cell line growth inhibition, 48 h
Recorded measurements of TGI, one per entry

compound | TGI
NC(CSCc1ccccc1)C(=O)O (centres undefined) | > 100 µM
CCCC[C@H](NC(=O)[C@H]1CCCN1C)C(=O)N(C)[C@H](C[C@@H](OC(C)=O)c1nc(C(=O)N[C@@H](Cc2ccccc2)C[C@H](C)C(=O)OCC)cs1)C(C)C | 4.13 µM
CN(C)NC(=S)Nc1ccccc1Br | > 100 µM
CCCCCCCCCC[C@H](O)[C@H]1CC[C@H]([C@H]2CC[C@H]([C@H](O)CC[C@H](O)CCCCCCC[C@@H](O)CC3=C[C@H](C)OC3=O)O2)O1 | > 100 µM
O=C(Cn1ccc(=O)[nH]c1=O)Nc1ccc(C(=O)O)c(O)c1 | > 100 µM
CNC(=O)c1cncc(/C=C/c2ccccc2C)c1 | > 25 µM
CC1(C)O[C@@H]2COC(=O)[C@@H]2O1 | > 100 µM
C[C@@H](C(=O)Nc1ccc(Cl)cc1)C1CCC(c2ccnc3ccc(F)cc23)CC1 (some centres undefined) | > 100 µM
CC(C)=CCc1c2c(c3occ(-c4ccc(O)c(O)c4)c(=O)c3c1O)C=CC(C)(C)O2 | 12.8 µM
